- tested.target: PI3K (Homo sapiens, UniProt P42336)
- Sequence (P42336 whole entry): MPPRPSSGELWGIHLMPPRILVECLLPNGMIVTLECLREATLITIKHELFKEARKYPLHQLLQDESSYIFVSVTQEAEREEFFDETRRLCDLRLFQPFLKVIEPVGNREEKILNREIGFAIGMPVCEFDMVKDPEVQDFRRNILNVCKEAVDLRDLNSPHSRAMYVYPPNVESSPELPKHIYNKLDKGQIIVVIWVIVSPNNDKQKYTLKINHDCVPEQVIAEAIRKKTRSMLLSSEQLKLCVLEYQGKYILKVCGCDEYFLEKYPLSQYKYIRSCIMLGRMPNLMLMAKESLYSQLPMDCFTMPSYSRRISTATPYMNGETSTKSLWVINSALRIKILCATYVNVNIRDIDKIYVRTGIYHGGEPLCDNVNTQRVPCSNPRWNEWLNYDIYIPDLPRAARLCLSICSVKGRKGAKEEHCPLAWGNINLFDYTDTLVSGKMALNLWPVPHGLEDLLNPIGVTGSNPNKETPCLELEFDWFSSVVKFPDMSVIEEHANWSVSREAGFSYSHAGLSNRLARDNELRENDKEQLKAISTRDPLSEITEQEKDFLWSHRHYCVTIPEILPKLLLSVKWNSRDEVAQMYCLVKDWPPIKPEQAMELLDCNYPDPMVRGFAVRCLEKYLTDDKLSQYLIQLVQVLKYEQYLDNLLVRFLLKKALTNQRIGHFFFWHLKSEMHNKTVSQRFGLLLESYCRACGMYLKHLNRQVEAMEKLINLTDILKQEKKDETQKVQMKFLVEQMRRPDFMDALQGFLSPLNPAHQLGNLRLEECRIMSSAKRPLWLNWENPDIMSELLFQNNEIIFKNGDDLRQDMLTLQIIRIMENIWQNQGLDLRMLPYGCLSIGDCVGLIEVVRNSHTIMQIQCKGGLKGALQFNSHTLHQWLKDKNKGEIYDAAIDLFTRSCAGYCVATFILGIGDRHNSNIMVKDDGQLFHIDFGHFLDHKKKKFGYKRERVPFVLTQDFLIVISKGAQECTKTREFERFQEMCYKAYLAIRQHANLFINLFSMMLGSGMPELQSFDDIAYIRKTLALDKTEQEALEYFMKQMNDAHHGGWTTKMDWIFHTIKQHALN
- Sequence (P27986 whole entry partner): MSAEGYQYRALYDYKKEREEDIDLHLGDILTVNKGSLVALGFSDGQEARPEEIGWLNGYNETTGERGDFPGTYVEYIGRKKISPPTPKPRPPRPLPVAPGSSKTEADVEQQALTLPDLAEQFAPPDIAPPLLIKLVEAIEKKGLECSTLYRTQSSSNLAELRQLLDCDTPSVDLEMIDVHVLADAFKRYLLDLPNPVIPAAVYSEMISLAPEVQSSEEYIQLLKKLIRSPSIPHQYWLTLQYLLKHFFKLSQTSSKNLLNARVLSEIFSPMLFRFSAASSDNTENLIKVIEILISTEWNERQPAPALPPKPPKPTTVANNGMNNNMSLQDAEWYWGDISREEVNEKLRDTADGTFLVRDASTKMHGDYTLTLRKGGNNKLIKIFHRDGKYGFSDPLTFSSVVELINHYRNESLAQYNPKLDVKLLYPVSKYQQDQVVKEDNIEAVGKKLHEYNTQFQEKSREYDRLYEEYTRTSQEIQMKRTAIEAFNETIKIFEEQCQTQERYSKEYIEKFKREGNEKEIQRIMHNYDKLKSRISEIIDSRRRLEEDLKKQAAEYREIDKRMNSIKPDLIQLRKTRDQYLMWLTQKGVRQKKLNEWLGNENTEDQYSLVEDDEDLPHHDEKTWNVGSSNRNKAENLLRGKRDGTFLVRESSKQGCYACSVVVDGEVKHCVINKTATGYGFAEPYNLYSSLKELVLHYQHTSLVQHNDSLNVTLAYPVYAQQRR
- assay.protocol: Fluorescence polarization assay for PI3K
- Assay type: biochemical
- experimental.context: PI3Kα; read-out: PI3Kα IC50
endpoint.label: IC50 (nM)

These solved cases illustrate the format of a correct answer.
Identify measured IC50 corresponding to c1ccc(-n2ncc3c(N4CCOCC4)nc(-c4cc5ccccc5[nH]4)nc32)cc1
1010

Respond only with IC50 recorded for CNC(=O)Nc1ccc(-c2nc(N3CCOCC3)c3cnn(C4CCN(C(=O)c5ccc(F)nc5)CC4)c3n2)cc1 [Compound 665]
100

Kindly indicate its recorded IC50. Item: CNC(=O)Nc1ccc(-c2nc(N3CCOCC3)c3cn[nH]c3n2)cc1Cl
401

1: CNC(=O)Nc1ccc(-c2nc(N3CCOCC3)c3cnn(C4CCN(C(=O)c5cccc(C(F)(F)F)c5)CC4)c3n2)cc1 [Example 359]
2: COCCCNC(=O)Nc1ccc(-c2nc(N3CCOCC3)c3cnn(C4CCN(Cc5ccccc5)CC4)c3n2)cc1 [Compound 270]
3: O=C(Nc1ccncc1)Nc1ccc(-c2nc(N3CCOCC3)c3cnn(C4CCN(Cc5cccnc5)CC4)c3n2)cc1F [Compound 352]
4: COC(=O)N1CCC(n2ncc3c(N4CCOCC4)nc(-c4ccc(NC(=O)OCCN5CCN(C)CC5)cc4)nc32)CC1
Order the records, beginning with the lowest IC50 and ending with the highest. Answer by naming the labels in the order asked.
3, 1, 2, 4

###

- Tested on: breast line MDA468
- assay.protocol: In vitro cell culture growth assay (MTS), MDA468
- Assay type: cell-based, human
- experimental.context: Homo sapiens, 72 h, MDA468 cells, three days after drug treatment
molecules and their reported IC50
Numbers only here, please. The scale is µM.

Below: 3 molecules and their reported IC50.
Name the recorded IC50 of the item CC(C)C(=O)N1CCC(n2ncc3c(N4CCOCC4)nc(-c4ccc(NC(=O)NCCF)cc4)nc32)CC1 [Compound 825] in your answer.
0.62

Could you please provide reported IC50 for O=CNc1ccc(-c2nc(N3CCOCC3)c3cnn(C4CCN(Cc5ccccc5)CC4)c3n2)cc1 [Compound 485] ? Thanks!
4.5

Given the molecule CNC(=O)Nc1ccc(-c2nc(N3CCOCC3)c3cnn(C4CCN(C(=O)OCCN(C)C)CC4)c3n2)cc1 [Compound 803] , write its reported IC50.
1

Could you now consider this next molecule?
Give me measured IC50, please, for this molecule: c1ccc(CN2CCC(n3ncc4c(N5CCOCC5)nc(-c5ccc6cc[nH]c6c5)nc43)CC2)cc1 [Compound 49]
5.8

###

- tested.target: PI3K (Homo sapiens, UniProt P42336)
- assay.protocol: Fluorescence polarization assay for PI3K;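 note: PI3K kinase reaction on PIP2 with ATP, 30-60 min, product sensed by GST-GRP with red probe in fluorescence polarization (mP), controls without enzyme and at zero time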
- Type: biochemical
- experimental.context: PI3Kα; read-out: PI3Kα IC50
endpoint.label: IC50 (nM)

Below are worked cases with known answers.
Answer briefly: IC50 recorded on PI3K (Homo sapiens, UniProt P42336) for CNCCNC(=O)Nc1ccc(-c2nc(N3CCOCC3)c3cnn(C4CCN(C(=O)c5ccccc5)CC4)c3n2)cc1 [Example 386]
48

Report IC50 from PI3K (Homo sapiens, UniProt P42336) testing of CNC(=O)Nc1ccc(-c2nc(N3CCOCC3)c3cnn(C4CCN(Cc5cccnc5)CC4)c3n2)cc1Cl
364

Give PI3K (Homo sapiens, UniProt P42336) IC50 for the following compound: c1cc2cc(-c3nc(N4CCOCC4)c4cnn(CCN5CCNCC5)c4n3)ccc2[nH]1
1850

Give measured IC50 for CNC(=O)Nc1ccc(-c2nc(N3CCOCC3)c3cnn(C4CCN(C(=O)SC)CC4)c3n2)cc1 (PI3K (Homo sapiens, UniProt P42336)).
72

a: COc1cccc(C(=O)Nc2ccc(-c3nc(N4CCOCC4)c4cn[nH]c4n3)cc2)c1
b: CNC(=O)Nc1ccc(-c2nc(N3CCOCC3)c3cnn(C4CCN(C(=O)c5ccncc5)CC4)c3n2)cc1 [Example 417]
c: O=C(Nc1ccccc1)Nc1ccc(-c2nc(N3CCOCC3)c3cnn(C4CCN(C(=O)c5ccccc5)CC4)c3n2)cc1 [Compound 623]
d: CNC(=O)Nc1ccc(-c2nc(N3CCOCC3)c3cnn(C4CCN(Cc5cccc(O)c5)CC4)c3n2)cc1 [Compound 642]
e: CNC(=O)Nc1ccc(-c2nc(N3CCOCC3)c3cnn(C4CCN(C(=O)OCCF)CC4)c3n2)cc1
Hello, I need these entries ordered by IC50, highest reading first. Thanks! Response format: the labels, sorted as the prompt asks.
a, b, e, d, c

I: CNC(=O)Nc1ccc(-c2nc(N3CCOCC3)c3cnn(C4CCN(C(=O)NC)CC4)c3n2)cc1 [Compound 722]
II: COC(=O)Nc1ccc(-c2nc(N3CCOCC3)c3cnn(C4CCN(CC(F)(F)F)CC4)c3n2)cc1
III: C[C@H]1COCCN1c1nc(-c2cccc(O)c2)nc2c1cnn2-c1ccccc1
Put these in order: smallest IC50 first, largest last. List labels; respect the requested ordering.
III, I, II
(III: 98 nM, I: 148 nM, II: 1740 nM)

###

- tested.target: PI3K (Homo sapiens)
- assay.protocol: Fluorescence polarization assay for PI3K
- Format: biochemical
- experimental.context: PI3Kα; read-out: PI3Kα IC50
endpoint.label: IC50 (nM)

Give IC50 for the following molecule: O=C(Nc1ccc(-c2nc(N3CCOCC3)c3cnn(C4CCN(C(=O)c5cccnc5)CC4)c3n2)cc1)Nc1cccs1 [Example 413]
15

Determine from records and report IC50 for CN(C)CCCNC(=O)Nc1ccc(-c2nc(N3CCOCC3)c3cnn(C4CCN(Cc5ccccc5)CC4)c3n2)cc1 [Compound 516]
158

# return recorded IC50 for input CC(=O)NCc1ccc(-c2nc(N3CCOCC3)c3cnn(-c4ccccc4)c3n2)cc1
350

State its IC50: CCCOC(=O)N1CCC(n2ncc3c(N4CCOCC4)nc(-c4ccc(NC(=O)NCC5CC5)cc4)nc32)CC1
2150

In one line, give reported IC50 of the entry C=CC(=O)N1CCC(n2ncc3c(N4CCOCC4)nc(-c4ccc(NC(=O)NC)cc4)nc32)CC1 .
98

Identify IC50 associated with the molecule Nc1cccc(-c2nc(N3CCOCC3)c3cnn(C4CCN(C(=O)c5cccnc5)CC4)c3n2)n1 [Compound 436]
4990

A: O=C(Nc1ccc(-c2nc(N3CCOCC3)c3cnn(C4CCN(C(=O)c5cccnc5)CC4)c3n2)cc1)Nc1ccsc1 [Compound 658]
B: O=C(Nc1ccccc1)Nc1ccc(-c2nc(N3CCOCC3)c3cnn(C4CCN(CCCCO)CC4)c3n2)cc1
C: CC(C)(C)OC(=O)N1CCC(n2ncc3c(N4CCOCC4)nc(-c4ccc(NC(=O)NCCO)cc4)nc32)CC1
Thanks in advance: please rank these 3 entries by IC50, highest to lowest. Answer with the labels in sequence, matching the requested order.
C, B, A
(C: 364 nM, B: 53 nM, A: 18 nM)

###

- Test system: breast line MDA468
- assay.protocol: In vitro cell culture growth assay (MTS), MDA468
- Assay type: cell-based, human
- experimental.context: Homo sapiens, 72 h, MDA468 cells, three days after drug treatment
endpoint.label: IC50 (nM)
Only the number, expressed in nM, is required.

For the compound Oc1cccc(-c2nc(N3CCOCC3)c3cnn(CCN4CCNCC4)c3n2)c1 , report IC50.
15000

Retrieve IC50 measured for CCNC(=S)N1CCC(n2ncc3c(N4CCOCC4)nc(-c4ccc(NC(=O)OC)cc4)nc32)CC1 and print it.
3000

Report IC50 for O=C(O)CCC(=O)Nc1ccc(-c2nc(N3CCOCC3)c3cnn(C4CCN(Cc5ccccc5)CC4)c3n2)cc1
45000

Find the measured IC50 of O=C(NCC(F)(F)F)Nc1ccc(-c2nc(N3CCOCC3)c3cnn(C4CCN(Cc5ccccc5)CC4)c3n2)cc1 [Compound 535] and report it.
1300

Give a short answer stating reported IC50 for CNC(=O)Nc1ccc(-c2nc(N3CCOCC3)c3cnn(C4CCNCC4)c3n2)cc1 [Compound 584] .
1300

Others:
Please indicate IC50 recorded for C=CCNC(=O)Nc1ccc(-c2nc(N3CCOCC3)c3cnn(C4CCN(Cc5ccccc5)CC4)c3n2)cc1 [Example 263]
1800

Return reported IC50. Input compound: CONC(=O)Nc1ccc(-c2nc(N3CCOCC3)c3cnn(C4CCN(C(=O)c5cccnc5)CC4)c3n2)cc1 [Compound 553]
3000

Supply reported IC50 belonging to this compound: CNC(=O)Nc1ccc(-c2nc(N3CCOCC3)c3cnn(C4CCN(C(=O)c5cccc(C)c5)CC4)c3n2)cc1
27

Note down IC50 recorded for CS(=O)(=O)Nc1cccc(-c2nc(N3CCOCC3)c3cnn(-c4ccccc4)c3n2)c1
60000

Return reported IC50. Input compound: CONC(=O)Nc1ccc(-c2nc(N3CCOCC3)c3cnn(-c4ccccc4)c3n2)cc1 [Compound 295]
5000

// fetch IC50 given entry NCCNC(=O)Nc1ccc(-c2nc(N3CCOCC3)c3cnn(C4CCN(Cc5ccccc5)CC4)c3n2)cc1 [Compound 512]
2700

Give a short answer stating reported IC50 for O=C(Nc1ccncc1)Nc1ccc(-c2nc(N3CCOCC3)c3cnn(C4CCN(Cc5cccnc5)CC4)c3n2)cc1F [Compound 352] .
100

Read off the recorded IC50 for CCOC(=O)N1CCC(n2ncc3c(N4CCOC[C@@H]4C)nc(-c4ccc(NC(=O)Nc5ccc(N6CCOCC6)cc5)cc4)nc32)CC1
150

Report IC50, nothing else, for this compound: Oc1cccc(-c2nc(N3CCOCC3)c3cnn(C4CCN(Cc5ccco5)CC4)c3n2)c1
600

State its IC50: COC(=O)N1CCC(n2ncc3c(N4CCOC(C)C4)nc(-c4ccc(NC(=O)NC5CC5)cc4)nc32)CC1 (stereo not drawn)
900
